tested on: GM28012 SURF1 fibroblasts; experiment: Seahorse mitochondrial stress test, fibroblast cell line GM28012 (Experiment 3, single compounds); assay type: cell-based, human; details: 48 h
recorded.endpoint: ATP production through OXPHOS

The molecule listed as `CCC[C@H](NC(=O)[C@@H]1[C@H]2CCC[C@H]2CN1C(=O)[C@@H](NC(=O)[C@@H](NC(=O)c1cnccn1)C1CCCCC1)C(C)(C)C)C(=O)C(=O)NC1CC1` has a reported ATP production through OXPHOS of Dose-dependent increase

ATP production through OXPHOS reported for this molecule NCCS [cysteamine bitartrate] : Dose-dependent increase
